Please respond with reported Toxicity for every item in the list.
# assay: In vivo toxic effect of alanine aminotransferase (ALAT) was determined 24 hr after mice were injected with 50 microg of pTG11033 plasmid complexed with compound into serum with DOPE
# Format: ADME, organism-based
# runParameters: mouse
Write the number on its own, no unit after it.

Entry CCCCCCCC/C=C/CCCCCCCCOP(=O)(CC[P+](C)(C)C)OCCCCCCCC/C=C/CCCCCCCC.[I-] — recorded Toxicity = 65

# Toxicity (compound: CCCCCCCC/C=C/CCCCCCCCOP(=O)(C[N+](C)(C)C)OCCCCCCCC/C=C/CCCCCCCC.[I-] ) is 30

response.value for CCCCCCCC/C=C\CCCCCCCC(=O)OCC(C[N+](C)(C)C)OC(=O)CCCCCCC/C=C\CCCCCCCC.[Cl-] (configuration not stated) (field: Toxicity) = 74

The compound CCCCCCCCCCCCCCOP(=O)(CC[P+](C)(C)C)OCCCCCCCCCCCCCC.[I-] showed Toxicity equal to 39

So for CCCCCCCCCCCCCCOP(=O)(C[N+](C)(C)C)OCCCCCCCCCCCCCC.[I-] , the logged Toxicity turned out to be 31

Per the records, this compound ( CCCCCCCC/C=C/CCCCCCCCOP(=O)(CC[As+](C)(C)C)OCCCCCCCC/C=C/CCCCCCCC.[I-] ) has Toxicity equal to 36

Form field Toxicity, entry CCCCCCCCCCCCCCOP(=O)(CC[As+](C)(C)C)OCCCCCCCCCCCCCC.[I-] : 34

----------
Please provide measured Toxicity for the entries that follow.
# assay: In vivo toxic effect of alanine aminotransferase (ALAT) was determined 24 hr after mice were injected with 50 microg of pTG11033 plasmid complexed with compound into serum without co-lipid
# Format: ADME, organism-based
# runParameters: mouse
Answer as a number with no unit attached.

// field: Toxicity; key: CCCCCCCC/C=C/CCCCCCCCOP(=O)(CC[P+](C)(C)C)OCCCCCCCC/C=C/CCCCCCCC.[I-] ; value = 35

Measured Toxicity of CCCCCCCC/C=C/CCCCCCCCOP(=O)(C[N+](C)(C)C)OCCCCCCCC/C=C/CCCCCCCC.[I-] : 250

GET /value?item= CCCCCCCCCCCCCCOP(=O)(CC[As+](C)(C)C)OCCCCCCCCCCCCCC.[I-] &field=Toxicity returns 26

The reported Toxicity of the compound CCCCCCCCCCCCCCOP(=O)(C[N+](C)(C)C)OCCCCCCCCCCCCCC.[I-] was 25

Per the records, this compound ( CCCCCCCC/C=C/CCCCCCCCOP(=O)(CC[As+](C)(C)C)OCCCCCCCC/C=C/CCCCCCCC.[I-] ) has Toxicity equal to 35

Measured Toxicity, CCCCCCCC/C=C\CCCCCCCC(=O)OCC(C[N+](C)(C)C)OC(=O)CCCCCCC/C=C\CCCCCCCC.[Cl-] (configuration not stated) : 70

Lab note: CCCCCCCCCCCCCCOP(=O)(CC[P+](C)(C)C)OCCCCCCCCCCCCCC.[I-] gave Toxicity of 55

----------
# assay: In vivo toxic effect of alanine aminotransferase (ALAT) was determined 24 hr after mice were injected with 50 microg of pTG11033 plasmid complexed with compound into serum with cholesterol
# Assay type: ADME, organism-based
# Design: unit not given beside the values
# runParameters: mouse
The label depends only on Toxicity: Y if it is at least 70, N if it is smaller.

Exam item: decide whether the reported Toxicity for CCCCCCCC/C=C\CCCCCCCC(=O)OCC(C[N+](C)(C)C)OC(=O)CCCCCCC/C=C\CCCCCCCC.[Cl-] (stereo not given) is at least 70. N

For this molecule, is measured Toxicity 70 or higher? CCCCCCCCCCCCCCOP(=O)(CC[P+](C)(C)C)OCCCCCCCCCCCCCC.[I-] N

Can CCCCCCCC/C=C/CCCCCCCCOP(=O)(CC[As+](C)(C)C)OCCCCCCCC/C=C/CCCCCCCC.[I-] be said to have Toxicity at or above 70? Y

For this molecule, is measured Toxicity 70 or higher? CCCCCCCCCCCCCCOP(=O)(C[N+](C)(C)C)OCCCCCCCCCCCCCC.[I-] N

Where do the numbers come from? From ChEMBL document CHEMBL1133536.
